tested on: TCF/LEF luciferase Reporter in DLD1 cells; test: TCF reporter assay (DLD1 TCF/LEF luciferase reporter, Bright-Glo); type: cell-based; conditions: read-out: DLD1 4% Abs IC50; DLD1 reporter assay, 4%, absolute IC50
Please go through the items and note down their pIC50.
# reply with the number alone; pIC50 is -log10 of concentration in mol/L

Just so you know, measured pIC50 for CC(=O)N1CCC[C@]12CC=CCCCC1(CCCC=CCCCOC(=O)N3CC[C@@](C(=O)N[C@@H](Cc4ccccc4C(F)(F)F)C(=O)N[C@@H](Cc4csc5ccccc45)C(=O)N[C@@H](CC(=O)N4CCN(C)CC4)C(N)=O)(C3)NC(=O)[C@H](CC(C)C)NC(=O)[C@H](Cc3ccccc3)NC(=O)[C@H](C)NC(=O)[C@H](C)NC(=O)[C@H](Cc3cccc(C(=O)O)c3)NC(=O)[C@H](CC(=O)O)NC1=O)NC(=O)[C@H](CC(C)(C)C)NC(=O)[C@H](CC(=O)O)NC2=O (stereo partly drawn) came out at 5.40

Just so you know, measured pIC50 for CC(=O)N1CCC[C@]12CC=CCCCC1(CCCC=CCCCOC(=O)N3CC[C@@](C(=O)N[C@@H](Cc4ccsc4)C(=O)N[C@@H](Cc4csc5ccccc45)C(=O)N[C@@H](CCC(N)=O)C(N)=O)(C3)NC(=O)[C@H](CC(C)C)NC(=O)[C@H](Cc3ccccc3)NC(=O)[C@H](C)NC(=O)[C@H](C)NC(=O)[C@H](CN(CCCC(F)(F)F)CC(=O)O)NC(=O)[C@H](CC(=O)O)NC1=O)NC(=O)[C@H](CC(C)(C)C)NC(=O)[C@H](CC(=O)O)NC2=O (stereo partly drawn) came out at 5.57

Just so you know, measured pIC50 for CC(=O)N1CCC[C@]12CC=CCCCC1(CCCC=CCCCOC(=O)N3CC[C@@](C(=O)N[C@@H](Cc4ccsc4)C(=O)N[C@@H](Cc4csc5ccccc45)C(=O)N[C@H](CO)[C@@H](C)O)(C3)NC(=O)[C@H](CC(C)C)NC(=O)[C@H](Cc3ccccc3)NC(=O)[C@H](C)NC(=O)[C@H](C)NC(=O)[C@H](Cc3ccccc3C(=O)O)NC(=O)[C@H](CC(=O)O)NC1=O)NC(=O)[C@H](CC(C)(C)C)NC(=O)[C@H](CC(=O)O)NC2=O (single isomer, unassigned) came out at 5.77

###

experiment: Solubility in PBS; type: physicochemical
PROPERTY NAME: Solubility (µM)
Write the number in µM without appending the unit.

Just so you know, measured Solubility for CC(=O)N1CCC[C@]12CC=CCCCC1(CCCC=CCCCCCC[C@@](C)(C(=O)N[C@@H](Cc3ccccc3Cl)C(=O)N[C@@H](Cc3csc4ccccc34)C(=O)N[C@@H](CCC(N)=O)C(N)=O)NC(=O)[C@H]([C@@H](C)O)NC(=O)[C@H](Cc3ccccc3)NC(=O)[C@H](C)NC(=O)[C@H](C)NC(=O)[C@H](CCC(=O)O)NC(=O)[C@H](CC(=O)O)NC1=O)NC(=O)[C@H](CC(C)(C)C)NC(=O)[C@H](CC(=O)O)NC2=O (stereo partly drawn) [I-1089] came out at 43

Just so you know, measured Solubility for CC(=O)N1CCC[C@]12CC=CCCCC1(CCCC=CCCCOC(=O)N3CC[C@@](C(=O)N[C@@H](Cc4ccsc4)C(=O)N[C@@H](Cc4csc5ccccc45)C(=O)N[C@H](CO)[C@@H](C)O)(C3)NC(=O)[C@H](Cc3ccc(C(F)(F)F)cc3)NC(=O)[C@H](Cc3ccccc3)NC(=O)[C@H](C)NC(=O)[C@H](C)NC(=O)[C@H](CC(=O)O)NC(=O)[C@H](CC(=O)O)NC1=O)NC(=O)[C@H](CC(C)(C)C)NC(=O)[C@H](CC(=O)O)NC2=O (stereo partly drawn) came out at 10

Just so you know, measured Solubility for CC(=O)N1CCC[C@]12CC=CCCCC1(CCCC=CCCCOC(=O)N3CC[C@@](C(=O)N[C@@H](Cc4ccsc4)C(=O)N[C@@H](Cc4csc5ccccc45)C(=O)N[C@H](C(N)=O)[C@@H](C)O)(C3)NC(=O)[C@H](CC(N)=O)NC(=O)[C@H](Cc3ccccc3)NC(=O)[C@H](C)NC(=O)[C@H](C)NC(=O)[C@H](CN(CC(=O)O)CC(F)(F)F)NC(=O)[C@H](CC(=O)O)NC1=O)NC(=O)[C@H](CC(C)(C)C)NC(=O)[C@H](CC(=O)O)NC2=O (stereo partly drawn) [I-943] came out at 49

###

Biological target: full-length beta-Catenin (Uniprot ID P35222) (Homo sapiens)
Construct: 10 nM full-length beta-Catenin (Uniprot ID P35222)
Sequence (P35222 1-781): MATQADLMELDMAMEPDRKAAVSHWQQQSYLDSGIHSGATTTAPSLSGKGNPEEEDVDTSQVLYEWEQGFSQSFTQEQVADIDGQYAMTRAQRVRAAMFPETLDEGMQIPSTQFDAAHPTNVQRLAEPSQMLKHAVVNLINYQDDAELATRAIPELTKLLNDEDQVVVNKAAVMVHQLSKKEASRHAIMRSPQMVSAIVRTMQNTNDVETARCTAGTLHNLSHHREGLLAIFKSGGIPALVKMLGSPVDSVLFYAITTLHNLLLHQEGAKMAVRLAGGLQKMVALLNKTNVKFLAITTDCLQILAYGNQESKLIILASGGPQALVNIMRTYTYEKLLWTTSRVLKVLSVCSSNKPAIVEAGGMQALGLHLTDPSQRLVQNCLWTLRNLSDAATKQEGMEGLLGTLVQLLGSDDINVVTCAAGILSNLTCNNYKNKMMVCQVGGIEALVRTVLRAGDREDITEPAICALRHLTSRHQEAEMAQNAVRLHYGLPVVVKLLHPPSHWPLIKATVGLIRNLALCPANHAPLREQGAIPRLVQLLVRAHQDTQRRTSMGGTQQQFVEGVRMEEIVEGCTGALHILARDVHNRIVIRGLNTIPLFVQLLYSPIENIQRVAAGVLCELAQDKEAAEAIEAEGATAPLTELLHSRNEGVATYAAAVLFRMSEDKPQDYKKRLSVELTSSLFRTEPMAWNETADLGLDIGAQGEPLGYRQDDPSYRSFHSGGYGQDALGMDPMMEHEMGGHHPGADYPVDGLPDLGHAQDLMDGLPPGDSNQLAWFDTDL
Test: Fluorescence polarization IC50 (beta-catenin / 5FAM-TCF4 10-53 competition)
Format: binding
Conditions: fluorescence polarization, beta-catenin; read-out: FP EC50
Please go through the items and note down their pIC50.
# reply with the number alone; pIC50 is -log10 of concentration in mol/L

Just so you know, measured pIC50 for CC(=O)N1CCC[C@]12CC=CCCCC1(CCCC=CCCCCCC[C@@](C)(C(=O)N[C@@H](Cc3ccccc3)C(=O)N[C@@H](Cc3csc4ccccc34)C(=O)N[C@@H](CCC(N)=O)C(N)=O)NC(=O)[C@H](C)NC(=O)[C@H](Cc3cccc(C(F)(F)F)c3)NC(=O)[C@H](C)NC(=O)[C@H](C)NC(=O)[C@H](CC(=O)O)NC(=O)[C@H](CC(=O)O)NC1=O)NC(=O)[C@H](C)NC(=O)[C@H](CC(=O)O)NC2=O (stereo partly drawn) [I-376] came out at 5.88

Just so you know, measured pIC50 for CC(=O)N1CCC[C@]12CC=CCCCC1(CCCC=CCCCOC(=O)N3CC[C@@](C(=O)N[C@@H](Cc4ccsc4)C(=O)N[C@@H](Cc4csc5ccccc45)C(N)=O)(C3)NC(=O)[C@H](CC(N)=O)NC(=O)[C@H](Cc3ccccc3)NC(=O)[C@H](C)NC(=O)[C@H](C)NC(=O)[C@H]([C@@H](C)O)NC(=O)[C@H](CC(=O)O)NC1=O)NC(=O)[C@H](CC(C)(C)C)NC(=O)[C@H](CC(=O)O)NC2=O (stereo partly drawn) [I-859] came out at 7.44

Just so you know, measured pIC50 for CC(=O)N1CCC[C@]12CC=CCCCC1(CCCC=CCCCOC(=O)N3CC[C@@](C(=O)N[C@@H](Cc4ccsc4)C(=O)N[C@@H](Cc4csc5ccccc45)C(=O)N[C@@H](C(N)=O)[C@H](C)O)(C3)NC(=O)[C@H](CC(N)=O)NC(=O)[C@H](Cc3ccccc3)NC(=O)[C@H](C)NC(=O)[C@H](C)NC(=O)[C@H](CN(CC(=O)O)CC(F)(F)F)NC(=O)[C@H](CC(=O)O)NC1=O)NC(=O)[C@H](CC(C)(C)C)NC(=O)[C@H](CC(=O)O)NC2=O (stereo partly drawn) [I-948] came out at 5.61

###

target: full-length beta-Catenin (Uniprot ID P35222) (Homo sapiens); construct: 10 nM full-length beta-Catenin (Uniprot ID P35222); assay: Fluorescence polarization IC50 (beta-catenin / 5FAM-TCF4 10-53 competition); assay type: binding; details: read-out: bCat FP IC50
PROPERTY NAME: IC50 (µM)
Write the number in µM without appending the unit.

Just so you know, measured IC50 for CC[C@H](C)[C@@H]1NC(=O)[C@H](CC(=O)O)NC(=O)[C@]2(CC=CCCCC3(CCCC=CCCCCCC[C@@](C)(C(=O)N[C@@H](Cc4ccccc4)C(=O)N[C@@H](Cc4csc5ccccc45)C(=O)N[C@@H](CCC(N)=O)C(N)=O)NC(=O)[C@H](CCC(N)=O)NC(=O)[C@H](Cc4ccccc4)NC(=O)[C@H](C)NC(=O)[C@H](C)NC(=O)[C@H](CN(CC)CC(=O)O)NC(=O)[C@H](CC(=O)O)NC3=O)NC1=O)CCCN2C(C)=O (stereo partly shown) [I-608] came out at 0.211

Just so you know, measured IC50 for CC(=O)N1CCC[C@]12CC=CCCCC1(CCCC=CCCCOC(=O)N3CC[C@@](C(=O)N[C@@H](Cc4ccsc4)C(=O)N[C@@H](Cc4csc5ccccc45)C(=O)N[C@@H](CCC(N)=O)C(N)=O)(C3)NC(=O)[C@H](CC(N)=O)NC(=O)[C@H](Cc3ccccc3)NC(=O)[C@H](C)NC(=O)[C@H](C)NC(=O)[C@H](CN(CC(=O)O)CC(F)(F)F)NC(=O)[C@H](CC(=O)O)NC1=O)NC(=O)[C@H](CC(C)(C)C)NC(=O)[C@H](CC(=O)O)NC2=O (single isomer, unassigned) [I-762] came out at 0.006

Just so you know, measured IC50 for CC[C@H](C)[C@@H]1NC(=O)[C@H](CC(=O)O)NC(=O)[C@]2(CC=CCCCC3(CCCC=CCCCCCC[C@@](C)(C(=O)N[C@@H](Cc4ccccc4)C(=O)N[C@@H](Cc4csc5ccccc45)C(=O)N[C@@H](CCC(N)=O)C(N)=O)NC(=O)[C@H](CCC(N)=O)NC(=O)[C@H](Cc4ccccc4)NC(=O)[C@H](C)NC(=O)[C@H](C)NC(=O)[C@H](CN(CC(=O)O)CC(F)(F)F)NC(=O)[C@H](CC(=O)O)NC3=O)NC1=O)CCCN2C(C)=O (stereo partly shown) [I-610] came out at 0.054
